target: T1, full length human DLL4 (human, UniProt Q9NR61 27-685); assay: FMAT competition, supernatant vs Alexa-647 human Notch1/Fc, 293T cells with human DLL4
T1 construct: whole, on cells; also called native DLL4 expressed in HEK293 cells
T1 sequence (Q9NR61 27-685): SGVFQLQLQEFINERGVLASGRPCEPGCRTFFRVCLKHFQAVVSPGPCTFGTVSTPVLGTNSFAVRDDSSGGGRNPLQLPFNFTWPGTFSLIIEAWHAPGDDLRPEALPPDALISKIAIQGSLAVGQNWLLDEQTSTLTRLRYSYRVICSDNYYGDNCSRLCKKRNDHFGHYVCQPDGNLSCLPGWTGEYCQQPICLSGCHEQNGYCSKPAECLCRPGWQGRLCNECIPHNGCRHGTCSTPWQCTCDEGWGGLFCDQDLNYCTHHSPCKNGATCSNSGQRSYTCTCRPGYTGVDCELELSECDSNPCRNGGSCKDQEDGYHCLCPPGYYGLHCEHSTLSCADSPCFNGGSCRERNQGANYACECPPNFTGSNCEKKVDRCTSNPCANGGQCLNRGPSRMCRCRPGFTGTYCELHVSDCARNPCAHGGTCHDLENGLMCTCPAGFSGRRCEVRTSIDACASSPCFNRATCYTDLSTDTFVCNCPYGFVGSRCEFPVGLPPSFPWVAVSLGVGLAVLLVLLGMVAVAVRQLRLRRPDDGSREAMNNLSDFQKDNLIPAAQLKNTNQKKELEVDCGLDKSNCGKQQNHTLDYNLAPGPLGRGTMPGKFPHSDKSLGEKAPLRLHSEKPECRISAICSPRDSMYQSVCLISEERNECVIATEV
Each item that follows carries a reported % inhibition n = 2.

The examples below pair each entry with its known result.
binder="1E4 (antibody, IgG2, V domains shown, Fully human; also used where no isotype is printed) VH: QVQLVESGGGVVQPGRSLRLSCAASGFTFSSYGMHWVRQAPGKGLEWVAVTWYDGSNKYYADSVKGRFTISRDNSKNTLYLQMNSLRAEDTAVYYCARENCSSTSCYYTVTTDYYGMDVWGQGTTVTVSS VL: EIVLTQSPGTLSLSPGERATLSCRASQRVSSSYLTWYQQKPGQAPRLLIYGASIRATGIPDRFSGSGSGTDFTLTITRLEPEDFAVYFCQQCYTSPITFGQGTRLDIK" measuredattribute="% inhibition n = 2" measurement=99%
binder="4B3 (antibody, IgG4, V domains shown, Fully human; also used where no isotype is printed) VH: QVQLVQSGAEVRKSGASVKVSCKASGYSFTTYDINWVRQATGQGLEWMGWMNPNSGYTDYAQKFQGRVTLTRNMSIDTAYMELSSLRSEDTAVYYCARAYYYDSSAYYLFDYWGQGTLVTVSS VL: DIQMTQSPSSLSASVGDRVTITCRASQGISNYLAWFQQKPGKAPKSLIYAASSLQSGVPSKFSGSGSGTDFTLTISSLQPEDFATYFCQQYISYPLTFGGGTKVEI" measuredattribute="% inhibition n = 2" measurement=145%

Q: Give reported % inhibition n = 2 value for 1D4 (antibody, IgG4, V domains shown, Fully human XenoMouse antibody; also used where no isotype is printed) VH: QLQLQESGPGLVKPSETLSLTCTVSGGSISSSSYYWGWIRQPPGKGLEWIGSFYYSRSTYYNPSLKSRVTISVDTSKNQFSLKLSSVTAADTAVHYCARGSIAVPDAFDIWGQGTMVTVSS VL: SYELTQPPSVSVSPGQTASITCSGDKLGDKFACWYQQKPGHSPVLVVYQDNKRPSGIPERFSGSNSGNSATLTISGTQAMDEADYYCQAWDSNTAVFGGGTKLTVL
Ans: 71%
